Attribution: patent US11077100B2

# target.under.test: human P2X7 (Homo sapiens (Human))
# Sequence (Q99572 whole entry): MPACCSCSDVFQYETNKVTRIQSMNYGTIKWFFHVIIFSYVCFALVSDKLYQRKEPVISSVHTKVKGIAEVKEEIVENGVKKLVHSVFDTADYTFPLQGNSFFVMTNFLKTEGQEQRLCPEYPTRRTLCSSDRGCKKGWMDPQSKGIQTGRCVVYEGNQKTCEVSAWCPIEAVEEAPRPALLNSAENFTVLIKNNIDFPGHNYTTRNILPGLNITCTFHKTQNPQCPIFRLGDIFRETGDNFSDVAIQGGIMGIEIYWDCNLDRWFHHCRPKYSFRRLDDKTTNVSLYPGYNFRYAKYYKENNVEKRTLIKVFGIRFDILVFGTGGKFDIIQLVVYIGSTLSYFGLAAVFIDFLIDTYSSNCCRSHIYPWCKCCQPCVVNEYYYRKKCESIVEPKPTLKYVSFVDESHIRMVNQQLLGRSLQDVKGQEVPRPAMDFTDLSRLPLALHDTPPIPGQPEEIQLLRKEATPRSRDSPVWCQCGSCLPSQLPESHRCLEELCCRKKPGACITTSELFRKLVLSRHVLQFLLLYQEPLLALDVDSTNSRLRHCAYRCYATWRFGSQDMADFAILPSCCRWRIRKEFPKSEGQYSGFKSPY
# protocol.description: Human P2X7 functional assay (Ca2+ influx, Fluo-4, FDSS)
# stated.conditions: antagonistic activity with respect to the human P2X7 receptor; BzATP final concentration 80 microM
pIC50: −log10 of the molar value.
Examples of molecules with documented pIC50 follow.

Here's what some known entries look like.
molecule=Cc1cc(Cl)cc(Cl)c1CNC(=O)[C@@H]1CC[C@@H](O)c2ncccc21 result_type=pIC50 observed_value="> 7.30"
molecule=O=C(NCc1ccccc1Cl)[C@]1(F)CC[C@H](O)c2ncccc21 result_type=pIC50 observed_value="> 7.30"
molecule="CC(CNC(=O)[C@]1(F)CC[C@H](O)c2ncccc21)c1ccc(Cl)cc1 (stereo partly shown)" result_type=pIC50 observed_value="6.00 to 6.52"
molecule=O=C1CO[C@@]2(CC[C@@](F)(C(=O)NCc3ccc(Cl)cc3Cl)c3cccnc32)CN1 result_type=pIC50 observed_value="7.00 to 7.30"
molecule=O=C(NCc1ccc(Cl)cc1Cl)[C@H]1CC[C@@H](O)c2ncccc21 result_type=pIC50 observed_value="> 7.30"

Query (molecule): CO[C@H]1CC[C@@](F)(C(=O)NCc2ccc(C(F)(F)F)cc2Cl)c2cccnc21 ; field requested: pIC50
> 7.30

Please report the recorded pIC50 for O=C(NCc1ccc(Cl)cc1F)[C@@H]1CC[C@H](O)c2ncccc21 .
> 7.30

# pIC50 lookup, item O=C(NCc1ccc(F)c(F)c1F)[C@H]1CC[C@H](O)c2ncccc21
6.00 to 6.52

# get_value(readout='pIC50', item= Cc1cnc2c(c1)[C@](F)(C(=O)NCc1ccc(Cl)cc1Cl)CC[C@@]2(O)CO )
5.52 to 6.00

Look up pIC50 for this molecule: O=C(NCc1ccc(Br)cc1F)[C@H]1CC[C@H](O)c2ncccc21
6.00 to 6.52

// pIC50 lookup, key: Cc1cc(Cl)cc(Cl)c1CNC(=O)C1(F)CCC(O)(CN(C)C)c2ncccc21 (stereo not shown)
> 7.30
